Assay: self-splicing fitness, log relative to wild type (ln ratio); higher = more splicing; Tetrahymena group I intron in knt gene, E. coli kanamycin selection, DiMSum; sequences stand for … in CUCUCU…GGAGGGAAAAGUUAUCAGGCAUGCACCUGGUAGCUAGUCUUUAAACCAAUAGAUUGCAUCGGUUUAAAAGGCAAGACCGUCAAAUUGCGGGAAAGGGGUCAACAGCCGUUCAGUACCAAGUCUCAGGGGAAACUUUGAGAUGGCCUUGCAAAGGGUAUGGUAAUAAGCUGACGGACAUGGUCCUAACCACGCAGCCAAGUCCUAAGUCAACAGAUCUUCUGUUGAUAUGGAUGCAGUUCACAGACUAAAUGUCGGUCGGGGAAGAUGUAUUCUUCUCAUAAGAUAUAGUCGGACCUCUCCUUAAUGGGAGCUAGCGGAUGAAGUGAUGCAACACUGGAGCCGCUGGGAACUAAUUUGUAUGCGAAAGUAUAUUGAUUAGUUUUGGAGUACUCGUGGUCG;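 note: selection with 25 µg/mL kanamycin versus none on LB agar overnight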
Conditions: 37 °C
Provide the reported self-splicing fitness (ln) of each item.
API doc: respond with a numeric literal and nothing else, no unit.

Given "AGACAGCAAUAUUACGGUCA" , state its recorded self-splicing fitness (ln).
-0.0714

Repeat for the following sequence: "GGCAAGCAAUAUUACGUCAA"
-0.756

Do the same for "UGCAAGCAAUAUUACGUGCC" please
-1.12

Repeat with "CCCGAGCAAUAUUACGGCCG"
-3.14

Same read-out for "GGCGAGCAAUAUUACGAUAG" ?
-2.67

Now the sequence "AUCCAGCAAUAUUACGCGUG"
-1.72

# iterate: "UACUAGCAAUAUUACGCCGU"
-2.67

What do you get for "GGAUAGCAAUAUUACGAACG" ?
-0.196

Also need "AAUUAGCAAUAUUACGUGAA" , thanks.
-1.22

Next: "UCCCAGCAAUAUUACGACUG"
-3.16

Quick one: "ACCGAGCAAUAUUACGACGU"
-0.637

Quick one: "ACCCAGCAAUAUUACGCUAU"
-0.75

Also, "UCCAAGCAAUAUUACGAGAC" please.
-2.23

// data source = the supplement of paper PMC7877785
